Assignment: determine reported pKi for the given molecules.
Answer as the number alone; pKi is minus log10 of concentration in mol/L.

Result for CNCCCN1C(=O)[C@@H]2[C@H](C1=O)[C@H](c1cc(-c3ccc(Cl)s3)on1)N1CCC[C@@H]21 (racemic) , tested on Coagulation factor X (Homo sapiens, UniProt P00742), pKi: 6.04

Result for C[N+](C)(C)CCCN1C(=O)[C@@H]2[C@H](C1=O)[C@H](c1cc(-c3ccc(Cl)s3)on1)N1CCC[C@@H]21 (racemic) , tested on Coagulation factor X (Homo sapiens, UniProt P00742), pKi: 8.05
